B1: ZER1 (parent)
chain: KEMARKVIEHCSNFKEENMDTSR

# Variants of: B1
# method summary: protein stability index of a GFP-peptide fusion (GPS, HEK-293T) (PSI 1-6); higher = more stable;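 note: lentivirally expressed fusions sorted by FACS into six bins by GFP to DsRed ratio, PSI derived from sequencing read proportions per bin multiplied by bin number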
# applied conditions: c terminus: native
Tick rule met if protein stability index is 4 or greater. Tick rule not met if protein stability index is less than 4.

A4S ... rule met
C11D ... rule met
R23P ... rule met
D20L ... rule not met
C11Q ... rule met

From here, focus on the item given below.
Lookup: Does protein stability index meet or surpass 4 for "K15M" ?
Found: rule not met
